meta.source: patent US20120232070A1

# system: hNurr1_RXRαFL (NURR1/RXRα heterodimer) (Homo sapiens, UniProt P19793+P43354)
# Sequence (P19793 whole entry, the tested form may be a part): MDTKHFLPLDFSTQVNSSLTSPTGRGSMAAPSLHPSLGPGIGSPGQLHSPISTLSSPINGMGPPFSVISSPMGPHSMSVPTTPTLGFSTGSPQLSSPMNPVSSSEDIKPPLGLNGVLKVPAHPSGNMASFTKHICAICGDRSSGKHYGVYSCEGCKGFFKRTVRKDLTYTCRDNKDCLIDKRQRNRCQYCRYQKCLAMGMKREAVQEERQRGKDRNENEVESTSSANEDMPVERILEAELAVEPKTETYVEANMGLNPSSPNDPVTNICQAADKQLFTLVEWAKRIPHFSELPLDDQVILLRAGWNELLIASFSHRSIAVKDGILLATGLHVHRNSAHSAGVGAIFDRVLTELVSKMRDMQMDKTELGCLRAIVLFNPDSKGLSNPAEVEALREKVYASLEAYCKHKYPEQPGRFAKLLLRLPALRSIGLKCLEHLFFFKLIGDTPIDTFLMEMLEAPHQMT
# Sequence (P43354 328-598): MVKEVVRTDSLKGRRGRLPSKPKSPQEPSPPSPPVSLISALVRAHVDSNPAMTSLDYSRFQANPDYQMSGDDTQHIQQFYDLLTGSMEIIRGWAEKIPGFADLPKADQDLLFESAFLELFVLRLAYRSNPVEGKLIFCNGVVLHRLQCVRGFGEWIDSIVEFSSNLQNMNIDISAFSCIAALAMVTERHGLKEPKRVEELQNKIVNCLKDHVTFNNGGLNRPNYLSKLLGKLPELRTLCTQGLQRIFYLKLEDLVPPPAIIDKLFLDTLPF
# protocolText: Transactivation assay in Cos-7 cells, NURR-1-Gal4 / RXRα, luciferase reporter
# Type: cell-based
# experimentalSetup: COS-7, read-out: hNurr1_RXRαFL Eff (%), efficacy in % relative to the reference XCT0135908 at 2·10^−5 M (=100%)
Reported Emax values are given for each entry in this list.
valueKind: Emax (%)

# smilesString, valueReported
records = [
    ("Cc1cc(C(=O)O)ccc1Cc1cc2cc(C(F)(F)F)ccc2n1S(=O)(=O)c1cccc(C(C)(C)C)c1", 68),
    ("C=C(c1ccc(C(=O)O)cc1)c1cc2cc(Cl)ccc2n1S(=O)(=O)c1ccc(C(C)C)cc1", 49),
    ("CC(C)(C)c1cccc(S(=O)(=O)n2c(Cc3ccc(C(=O)O)c(Cl)c3)cc3cc(C(F)(F)F)ccc32)c1", 71),
]

----------
# system: hNurr1_RXRγFL (NURR1/RXRγ heterodimer) (Homo sapiens, UniProt P43354+P48443)
# Sequence (P43354 328-598): as above
# Sequence (P48443 whole entry, the tested form may be a part): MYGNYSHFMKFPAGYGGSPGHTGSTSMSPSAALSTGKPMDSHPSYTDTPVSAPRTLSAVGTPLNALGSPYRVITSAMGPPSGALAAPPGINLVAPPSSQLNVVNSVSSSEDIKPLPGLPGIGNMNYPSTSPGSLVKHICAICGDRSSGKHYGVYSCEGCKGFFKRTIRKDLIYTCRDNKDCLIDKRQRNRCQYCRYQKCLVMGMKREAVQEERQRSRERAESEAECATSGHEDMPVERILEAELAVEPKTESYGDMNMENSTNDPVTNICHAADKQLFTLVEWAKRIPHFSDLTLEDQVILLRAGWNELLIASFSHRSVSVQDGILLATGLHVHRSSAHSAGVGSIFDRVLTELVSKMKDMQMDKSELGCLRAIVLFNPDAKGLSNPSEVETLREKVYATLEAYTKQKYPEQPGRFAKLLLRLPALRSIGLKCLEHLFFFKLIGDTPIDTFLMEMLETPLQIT
# protocolText: Transactivation assay in Cos-7 cells, NURR-1-Gal4 / RXRγ, luciferase reporter
# Format: cell-based
# experimentalSetup: COS-7, read-out: hNurr1_RXRγFL Eff (%), efficacy in % relative to the reference XCT0135908 at 2·10^−5 M (=100%)

# compound, Emax [%]
records = [
    ("CN1CCOc2ccc(S(=O)(=O)n3c(Cc4ccc(C(=O)O)cc4)cc4cc(C(F)(F)F)ccc43)cc21", 50),
    ("CC(C)(C)c1cccc(S(=O)(=O)n2c(C(F)c3ccc(C(=O)O)cc3)cc3cc(C(F)(F)F)ccc32)c1 (stereo not shown)", 80),
    ("CC(C)(C)c1cccc(S(=O)(=O)n2c(Cc3ccc(C(=O)O)cc3)cc3ccccc32)c1", 56),
    ("O=C(O)c1ccc(Cc2cc3cc(C(F)(F)F)ccc3n2S(=O)(=O)c2ccc(-c3ccccc3)s2)cc1", 30),
    ("O=C(O)c1ccc(Cc2cc3cc(C(F)(F)F)ccc3n2S(=O)(=O)c2ccc(F)cc2)cc1", 18),
    ("O=C(O)c1ccc(Cc2cc3cc(C(F)(F)F)ccc3n2S(=O)(=O)c2ccc(Oc3ccccc3)nc2)cc1", 22),
    ("CC(C)(C)c1ccc(S(=O)(=O)n2c(Cc3ccc(C(=O)O)cc3)cc3cc(C(F)(F)F)ccc32)cc1", 35),
    ("O=C(O)c1ccc(Cc2cc3cc(Cl)ccc3n2S(=O)(=O)c2ccc(C(F)(F)F)cc2)cc1", 53),
    ("CCC(C)(C)c1ccc(S(=O)(=O)n2c(Cc3ccc(C(=O)O)cc3)cc3cc(C(F)(F)F)ccc32)cc1", 45),
    ("O=C(O)c1ccc(Cc2cc3cc(C(F)(F)F)ccc3n2S(=O)(=O)c2ccc(Oc3ccccc3)cc2)cc1", 19),
    ("CC(C)(C)c1ccc(S(=O)(=O)n2c(Cc3ccc(C(=O)O)cc3)cc3cc(Cl)ccc32)cc1", 59),
    ("C=C(c1ccc(C(=O)O)cc1)c1cc2cc(Cl)ccc2n1S(=O)(=O)c1ccc(C(C)C)cc1", 27),
    ("CC(C)COc1ccc(S(=O)(=O)n2c(Cc3ccc(C(=O)O)cc3)cc3cc(C(F)(F)F)ccc32)cc1", 45),
    ("O=C(O)c1ccc(Cc2cc3cc(Cl)ccc3n2S(=O)(=O)c2ccc(Oc3ccccc3)nc2)cc1", 14),
    ("CCS(=O)(=O)n1c(Cc2ccc(C(=O)O)cc2)cc2cc(Cl)ccc21", 21),
    ("O=C(O)c1ccc(Cc2cc3cc(Cl)ccc3n2S(=O)(=O)c2ccc3c(c2)OCO3)cc1", 37),
    ("CC(C)(C)c1cccc(S(=O)(=O)n2c(Cc3csc(C(=O)O)c3)cc3cc(C(F)(F)F)ccc32)c1", 91),
    ("O=C(O)c1ccc(Cc2cc3cc(C(F)(F)F)ccc3n2S(=O)(=O)c2ccc(N3CCOCC3)nc2)cc1", 19),
    ("Cc1cc(Cc2cc3cc(C(F)(F)F)ccc3n2S(=O)(=O)c2cccc(C(C)(C)C)c2)c(F)cc1C(=O)O", 91),
    ("CCC(C)(C)c1ccc(S(=O)(=O)n2c(Cc3ccc(C(=O)O)cc3)cc3cc(Cl)ccc32)cc1", 52),
    ("COC(=O)c1ccc(Cc2cc3cccc(F)c3n2S(=O)(=O)c2cccc(C(C)(C)C)c2)cc1", 97),
    ("COc1cc(Cc2cc3cc(Cl)ccc3n2S(=O)(=O)c2ccc(C(C)C)cc2)ccc1C(=O)O", 8),
    ("CC(C)(C)c1cccc(S(=O)(=O)n2c(Cc3ccc(C(=O)O)cc3)cc3c(Cl)c(Cl)ccc32)c1", 82),
    ("O=C(O)c1ccc(Cc2cc3cc(Cl)ccc3n2S(=O)(=O)c2ccc3c(c2)OCCO3)cc1", 64),
    ("O=C(O)c1ccc(Cc2cc3cc(C(F)(F)F)ccc3n2S(=O)(=O)c2ccc(Cl)cc2)cc1", 25),
    ("CCCCCc1ccc(S(=O)(=O)n2c(Cc3ccc(C(=O)O)cc3)cc3cc(C(F)(F)F)ccc32)cc1", 22),
    ("CC(C)c1ccc(S(=O)(=O)n2c(Cc3ccc(C(=O)O)c(F)c3)cc3cc(C(F)(F)F)ccc32)cc1", 43),
    ("CC(C)c1ccc(S(=O)(=O)n2c(Cc3ccc(C(=O)O)cc3)cc3cc(C(F)(F)F)ccc32)cc1", 79),
]

----------
# system: hNurr1_RXRαFL (NURR1/RXRα heterodimer) (Homo sapiens, UniProt P19793+P43354)
# protocolText: Transactivation assay in Cos-7 cells, NURR-1-Gal4 / RXRα, luciferase reporter
# Assay type: cell-based
# experimentalSetup: Cos-7 cells, overnight incubation
Could you please mark Condition met for values of EC50 below 0.8 µM and Condition not met for values at or above it?

# smilesString, category
records = [
    ("COC(=O)c1ccc(Cc2cc3cc(C(F)(F)F)ccc3n2S(=O)(=O)c2cccc(C(C)(C)C)c2)s1", "Condition met"),
    ("O=C(O)c1ccc(Cc2cc3cc(Cl)ccc3n2S(=O)(=O)c2cccc(Cl)c2)cc1", "Condition met"),
    ("O=C(O)c1ccc(Cc2cc3cc(C(F)(F)F)ccc3n2S(=O)(=O)c2ccsc2)cc1", "Condition met"),
    ("O=C(O)c1ccc(Cc2cc3cc(C(F)(F)F)ccc3n2S(=O)(=O)c2ccc(Cl)c(OC(F)F)c2)cc1", "Condition not met"),
    ("O=C(O)c1ccc(Cc2cc3cc(Cl)ccc3n2S(=O)(=O)c2ccc(-c3ccc(F)cc3)cc2)cc1", "Condition met"),
    ("CCS(=O)(=O)n1c(Cc2ccc(C(=O)O)cc2)cc2cc(Cl)ccc21", "Condition not met"),
    ("COc1cc(Cc2cc3cc(Cl)ccc3n2S(=O)(=O)c2ccc(C(C)C)cc2)ccc1C(=O)O", "Condition not met"),
    ("O=C(O)c1ccc(Cc2cc3cc(Cl)ccc3n2S(=O)(=O)c2ccc3ccccc3c2)cc1", "Condition met"),
    ("O=C(O)c1ccc(Cc2cc3cc(C(F)(F)F)ccc3n2S(=O)(=O)c2cccc(C3CC3)c2)cc1", "Condition met"),
]

----------
# system: hNurr1_RXRαFL (NURR1/RXRα heterodimer) (Homo sapiens, UniProt P19793+P43354)
# protocolText: Transactivation assay in Cos-7 cells, NURR-1-Gal4 / RXRα, luciferase reporter
# experimentalSetup: Cos-7 cells, overnight incubation
pEC50: −log10 of the molar value.

# compound, system, pEC50
data = [
    ("CC(C)(C)c1cccc(S(=O)(=O)n2c(Cc3ccc(C(=O)O)cc3Cl)cc3cc(C(F)(F)F)ccc32)c1", "hNurr1_RXRαFL (NURR1/RXRα heterodimer) (Homo sapiens, UniProt P19793+P43354)", 7.01),
    ("CC(C)c1cccc(S(=O)(=O)n2c(Cc3ccc(C(=O)O)cc3)cc3cc(C(F)(F)F)ccc32)c1 [Example 114]", "hNurr1_RXRαFL (NURR1/RXRα heterodimer) (Homo sapiens, UniProt P19793+P43354)", 7.20),
    ("O=C(O)c1ccc(Cc2cc3cc(C(F)(F)F)ccc3n2S(=O)(=O)c2ccc(C(=O)N3CCOCC3)cc2)cc1", "hNurr1_RXRαFL (NURR1/RXRα heterodimer) (Homo sapiens, UniProt P19793+P43354)", 6.09),
]
